TARGET_ENTITY: Glucose transporter (Leishmania mexicana)
TEST_DETAILS: ST_JUDE_LEISH: Cytotoxicity at 2uM final concentration against transgenic Leishmania Mexicana promastigotes LmGT2 that are glucose transport deficient and complemented with the L. Mexicana glucose transporter 2. Activity is measured by DNA content using SYBR green in vitro
Type: functional
Assign class by inhibition: not lower than 3% means yes (1); lower than 3% means no (0).

Recorded results for 3 compounds are shown here.
Query: Textbook exercise: given the entry COc1ccc(C2CC(=O)C3=C(C2)NC(C)=C(C(=O)OC(C)C)C3c2c(F)cccc2Cl)cc1OC (stereo not given) , state whether its inhibition is greater than or equal to 3%.
Reply: no (0)

Query: Textbook exercise: given the entry `COc1cc(NCCCNCc2cn(S(=O)(=O)c3ccccc3)c3ccccc23)nc2ccccc12` , state whether its inhibition is greater than or equal to 3%.
Reply: yes (1)

Query: Textbook exercise: given the entry `CN1CCC(N2CCN(Cc3cccc(-c4ccc(-c5nc6ccccc6[nH]5)cc4)c3)CC2)CC1` , state whether its inhibition is greater than or equal to 3%.
Reply: no (0)

Further cases:
Query: Textbook exercise: given the entry Nc1nc2c(ncn2COC2COP(=O)(O)OC2)c(=O)[nH]1 (stereo not given) , state whether its inhibition is greater than or equal to 3%.
Reply: yes (1)

---

The entries below are paired with their reported inhibition.
TARGET_ENTITY: Glucose transporter (Leishmania mexicana) (UniProt O61059)
TEST_DETAILS: ST_JUDE_LEISH: Cytotoxicity at 2uM final concentration against transgenic Leishmania Mexicana promastigotes LmGT2 that are glucose transport deficient and complemented with the L. Mexicana glucose transporter 2. Activity is measured by DNA content using SYBR green in vitro
Format: functional
Your answer should be a plain number; it is taken to be in %.

Query: inhibition; subject: `Oc1ccc(Nc2ccnc3cc(Cl)ccc23)cc1`
Reply: 4.27

Query: inhibition; subject: `Nc1ccnc2ccc(OCCCCCCc3ccccc3)cc12`
Reply: -1.14

Query: inhibition; subject: `Cc1cc(NC(=O)c2ccco2)ccc1OC1CCN(Cc2ccccc2)CC1`
Reply: 1.9

Query: inhibition; subject: `O=C(NCc1cccc(C(F)(F)F)c1)c1ccc(CNC(=O)c2ccc(O)c(-c3ccc(Cl)c(Cl)c3)c2)cc1`
Reply: 3.47

Query: inhibition; subject: CCN1CCN(C(=O)NC(C(=O)N2CCCC(COc3ccc(Cc4ccccc4)cc3)C2)c2cccs2)C(=O)C1=O (stereo not given)
Reply: 4.28

---

TARGET_ENTITY: Hexose transporter 1 (Plasmodium falciparum) (UniProt O97467)
TEST_DETAILS: ST_JUDE_LEISH: Cytotoxicity at 2uM final concentration against transgenic Leishmania Mexicana promastigotes LmPfHT that are glucose transport deficient and complemented with the Plasmodium falciparum hexose transporter. Activity is measured by DNA content using SYBR green in vitro
Type: functional
The entries below are paired with their reported inhibition.
Your answer should be a plain number; it is taken to be in %.

Query: inhibition; subject: `Cc1cc(-c2nc3ccc(CN4CCN(C)CC4)cc3[nH]2)nn1Cc1cc(Cl)ccc1OCc1ccccc1`
Reply: 3.27

Query: inhibition; subject: `Cc1ccn2cc(-c3ccc(NC(=O)c4ccc(Br)o4)cc3)nc2c1`
Reply: 2.74

Query: inhibition; subject: `O=C(Nc1cccc(-c2nn3ccccc3c2-c2ccnc(Nc3ccc(NCCCN4CCOCC4)c(F)c3)n2)c1)c1c(F)cccc1F`
Reply: 30.5

Further cases:
Query: inhibition; subject: `O=C(Nc1ccc(Cl)cn1)c1sc2ccccc2c1O`
Reply: 3.43

Query: inhibition; subject: `CC(C)Nc1nc(NCCc2c[nH]cn2)nc(Nc2ccc(Oc3ccccc3)cc2)n1`
Reply: 2.71

Query: inhibition; subject: CCc1cc2c3c(N)nc(N)nc3ccc2n1C(C)CC (stereo unspecified)
Reply: 86.6
